molecular target: T1, recombinant human IL-6 (human, UniProt P05231 30-212); assay: SPR (Biacore), purified IgG on Protein A, 37 C
T1 construct: Flowed in solution over the captured antibodies
T1 sequence (P05231 30-212 limits assumed): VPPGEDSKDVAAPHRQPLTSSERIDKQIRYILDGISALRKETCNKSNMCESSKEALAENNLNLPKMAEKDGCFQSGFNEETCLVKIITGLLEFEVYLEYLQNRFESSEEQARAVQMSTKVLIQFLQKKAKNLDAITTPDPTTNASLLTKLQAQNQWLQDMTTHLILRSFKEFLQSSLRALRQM
Collected koff values appear next to each entry.
// return numeric value only (unit: s⁻¹, not printed)

I would be grateful if you could share the reported koff for anti-IL-6 antibody, heavy chain D62Q, light chain WT (antibody, IgG1, V domains shown, Full IgG1 tested; V domains derived as in m2) VH: EVQLVESGGGLVQPGGSLRLSCAASGFTFSPFAMSWVRQAPGKGLEWVAKISPGGSWTYYSQTVTGRFTFSLDTSKSTAYLQMNSLRAEDTAVYYCARQLWGYYALDIWGQGTLVTVSS VL: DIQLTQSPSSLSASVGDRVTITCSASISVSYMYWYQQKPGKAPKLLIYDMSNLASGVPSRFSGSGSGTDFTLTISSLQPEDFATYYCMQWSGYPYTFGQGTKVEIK .
0.000601

Proceed to anti-IL-6 antibody, heavy chain G66E, light chain WT (antibody, IgG1, V domains shown, Full IgG1 tested; V domains derived as in m2) VH: EVQLVESGGGLVQPGGSLRLSCAASGFTFSPFAMSWVRQAPGKGLEWVAKISPGGSWTYYSDTVTERFTFSLDTSKSTAYLQMNSLRAEDTAVYYCARQLWGYYALDIWGQGTLVTVSS VL: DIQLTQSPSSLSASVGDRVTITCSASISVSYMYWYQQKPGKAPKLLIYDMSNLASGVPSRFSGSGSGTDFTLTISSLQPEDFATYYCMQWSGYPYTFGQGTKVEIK
0.000171

Proceed to anti-IL-6 antibody, heavy chain G66D, light chain WT (antibody, IgG1, V domains shown, Full IgG1 tested) VH: EVQLVESGGGLVQPGGSLRLSCAASGFTFSPFAMSWVRQAPGKGLEWVAKISPGGSWTYYSDTVTDRFTFSLDTSKSTAYLQMNSLRAEDTAVYYCARQLWGYYALDIWGQGTLVTVSS VL: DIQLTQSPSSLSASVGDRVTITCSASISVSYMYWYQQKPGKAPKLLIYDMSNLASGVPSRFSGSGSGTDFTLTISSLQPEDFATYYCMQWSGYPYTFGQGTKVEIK
0.000136
